assay: Maximum plasma concentration was determined after administering 30 mg/kg of compound orally in rat no.5 belonging to phenotype PM (poor metabolizer); format: ADME, organism-based; set-up: dose 30 mg/kg, route oral; details: po
assay-readout: Cmax (µg/mL)
Numbers only; they are read as µg/mL.

Form field: reported Cmax of COc1cc2ncnc(N3CCN(C(=O)Nc4ccc(C#N)cc4)CC3)c2cc1OC
50.7

---

assay: Volume of distribution at steady state was determined after administering 1 mg/kg of compound intravenously in rat no.1 belonging to phenotype EM (extensive metabolizer); type: ADME, organism-based; design: dose 1 mg/kg, route intravenous; details: in vivo, iv, read-out: Vdss
assay-readout: Vd (L/kg)
Numbers only; they are read as L/kg.

Form field: reported Vd of COc1cc2ncnc(N3CCN(C(=O)Nc4ccc(C#N)cc4)CC3)c2cc1OC
0.22

---

test: Half-life period of intravenously administered compound (1 mg/kg) in rat no.9 belonging to the phenotype EM (extensive metaboliser); type: ADME, organism-based; settings: in vivo, iv, read-out: T1/2 beta (converted)
assay-readout: half-life (min)
Numbers only; they are read as min.

Form field: reported half-life of COCCOc1cc2c(N3CCN(C(=O)Nc4ccc(C#N)cc4)CC3)ncnc2cc1OC
15.7

---

assay: Mean residence time of intravenously administered compound (1 mg/kg) in rat no.4 belonging to phenotype PM (poor metabolizer); type: ADME, organism-based; conditions: in vivo, iv
assay-readout: MRT (h)
Numbers only; they are read as h.

Form field: reported MRT of COc1cc2ncnc(N3CCN(C(=O)Nc4ccc(C#N)cc4)CC3)c2cc1OC
4.2

---

assay: Maximum time of retention of orally administered compound (30 mg/kg) in rat no.7 belonging to phenotype PM (poor metabolizer); assay type: ADME, organism-based; details: in vivo, po
assay-readout: Tmax (h)
Numbers only; they are read as h.

Form field: reported Tmax of COc1cc2ncnc(N3CCN(C(=O)Nc4ccc(C#N)cc4)CC3)c2cc1OC
2

---

experiment: Half-life period of orally administered compound (30 mg/kg) in rat no.7 belonging to phenotype PM (poor metabolizer); type: ADME, organism-based; conditions: in vivo, po
assay-readout: half-life (h)
Numbers only; they are read as h.

Form field: reported half-life of COc1cc2ncnc(N3CCN(C(=O)Nc4ccc(C#N)cc4)CC3)c2cc1OC
3.4

---

experiment: Plasma clearance was determined after administering 1 mg/kg of compound intravenously in rat no.3 belonging to phenotype EM (extensive metabolizer); assay type: ADME, organism-based; parameters: dose 1 mg/kg, route intravenous; details: iv
assay-readout: clearance (mL/min/kg)
Numbers only; they are read as mL/min/kg.

Form field: reported clearance of COc1cc2ncnc(N3CCN(C(=O)Nc4ccc(C#N)cc4)CC3)c2cc1OC
6.88

---

test: Mean residence time after oral administration of 30 mg/kg of compound in rat no.7 belonging to phenotype PM (poor metabolizer); format: ADME, organism-based; set-up: dose 30 mg/kg, route oral; details: in vivo
assay-readout: MRT (h)
Numbers only; they are read as h.

Form field: reported MRT of COc1cc2ncnc(N3CCN(C(=O)Nc4ccc(C#N)cc4)CC3)c2cc1OC
6.36

---

assay: Half-life period of intravenously administered compound (1 mg/kg) in rat no.2 belonging to phenotype EM (extensive metabolizer); assay type: ADME, organism-based; settings: in vivo, iv, read-out: T1/2 beta (converted)
assay-readout: half-life (min)
Numbers only; they are read as min.

Form field: reported half-life of COc1cc2ncnc(N3CCN(C(=O)Nc4ccc(C#N)cc4)CC3)c2cc1OC
27
